# Test system: NCI/ADR-RES
# PROCEDURE DETAILS: NCI tumour cell line growth inhibition, 48 h
The source made the active and inactive calls. Cut-off read from the data, not from the text of the source: active = GI50 up to about 1.1 µM and inactive = higher.
Can you answer with just one of these options? active, inactive

O=C(OCC1OC2OC(c3ccccc3)(n3ccc4c([N+](=O)[O-])ccnc43)OC2C1OC(=O)c1ccccc1)c1ccccc1 (stereo unspecified)    inactive
O=[N+]([O-])c1ccc2c3c1[C@@H]1O[C@@H]1c1cccc(c1-3)[C@@H]1O[C@H]21    inactive
C[C@@H](NC(C#N)c1ccco1)c1ccccc1 (stereo partly specified)    inactive
[O-][n+]1c2ccccc2[n+]([O-])c2ccccc21    inactive
CC1(C)C(=O)N(O)C(C)(C)N1O    inactive
CCOC(=O)C(=[N+]=[N-])C(=O)C1(C(=O)OCC)CCN(C(=O)c2ccccc2)C1=O (stereo unspecified)    inactive

Exam item: # lookup: test call for CO/N=C(/C(=O)N(C(=O)/C(=N/OC)c1csc(NC(c2ccccc2)(c2ccccc2)c2ccccc2)n1)n1cnn(CC(=O)OC(C)(C)C)c1=O)c1csc(NC(c2ccccc2)(c2ccccc2)c2ccccc2)n1
Marked response: inactive

Exam item: Dear colleague, could you share the recorded outcome for Cc1cc(S(=O)(=O)Nc2nc(N)n[nH]2)c(SCC(=O)O)cc1Cl when you have a moment?
Marked response: inactive

Exam item: Hi, do you know how CCCCNC(=S)Nc1nc(C(=O)NNC(=S)NCC)cs1 came out in this test?
Marked response: inactive

Exam item: Status in this test for C/C(=C\COP(=O)(O)OP(=O)(O)O)CC/C=C(\C)CNc1c(F)c(F)c(F)c(F)c1F ?
Marked response: inactive

Exam item: Check the results log: what was the call for C/C(=N\N)C(CN1CCCCC1)C(c1ccccc1)c1c(O)c2ccccc2oc1=O (stereo unspecified) ?
Marked response: inactive

Exam item: Each compound tested received a call. Report the one for C=C(C)COC(=O)COCC(=O)OCC(=C)C .
Marked response: inactive

Exam item: So what was the verdict on COCN(CCC1=CCCCC1)C(=O)OC in this test?
Marked response: inactive

Exam item: Test call, this compound: COc1ccc2oc(S(=O)(=O)N3CC(CCl)c4ccc([N+](=O)[O-])cc43)cc2c1 (stereo unspecified)
Marked response: active

These measurements were taken from ChEMBL document CHEMBL1201862.
